Biological target: SFRP-1 (Homo sapiens, UniProt Q8N474)
Assay: Cell-based assay for in vitro measurement of SFRP-1/SARP2 antagonist activity (U2OS cells co-transfected with 16x TCF-tk-Luciferase reporter, Wnt and hSFRP-1)
Settings: U2OS, read-out: Fold Induction with SFRP-1, Conc 15 μM; with SFRP-1; fold induction over SFRP-1 control, single dose
ENDPOINT LABEL: fold induction at 15 µM

(1) CCc1ccc(S(=O)(=O)c2ccc(C)c(S(=O)(=O)NCCc3ccccn3)c2)cc1
(2) COc1cccc(S(=O)(=O)c2ccc(C(C)C)c(S(=O)(=O)NCCc3ccccn3)c2)c1
(3) COc1ccc(CCNS(=O)(=O)c2cc(S(=O)(=O)c3ccccc3)ccc2OC)cc1OC
Please arrange the 3 compounds above from largest to smallest fold induction at 15 µM value. A complete answer lists every label in the requested sequence.
2, 1, 3
(2: 3.6, 1: 2.3, 3: 1.5)

###

Target: UniProtKB Q8N474
Assay: Cell-based assay for in vitro measurement of SFRP-1/SARP2 antagonist activity (U2OS cells co-transfected with 16x TCF-tk-Luciferase reporter, Wnt and hSFRP-1)
Conditions: U2OS, read-out: Fold Induction with SFRP-1, Conc 15 μM; with SFRP-1; fold induction over SFRP-1 control, single dose
ENDPOINT LABEL: fold induction at 15 µM

| MOLECULE | TESTED SYSTEM | fold induction at 15 µM |
| --- | --- | --- |
| COCCCNS(=O)(=O)c1cc(S(=O)(=O)c2ccccc2)ccc1OC [Example 238] | UniProtKB Q8N474 | 1.3 |
| CCc1ccc(S(=O)(=O)c2ccccc2)cc1S(=O)(=O)NC1Cc2ccccc2C1 [Example 266] | UniProtKB Q8N474 | 2.7 |
| Cc1ccc(S(=O)(=O)c2ccccc2)cc1S(=O)(=O)NCC1CCOCC1 [Example 382] | UniProtKB Q8N474 | 2.4 |
| Cc1ccc(S(=O)(=O)c2ccccc2)cc1S(=O)(=O)NC1CCN(S(=O)(=O)c2ccccc2)CC1 [Example 448] | UniProtKB Q8N474 | 2 |
| CCc1ccc(S(=O)(=O)c2ccccc2)cc1S(=O)(=O)NCCC1CCOCC1 [Example 301] | UniProtKB Q8N474 | 3.3 |
| Cc1ccc(S(=O)(=O)c2ccccc2)cc1S(=O)(=O)NC1CCC1 [Example 398] | UniProtKB Q8N474 | 2.6 |
| Cc1ccc([S+]([O-])c2ccccc2)cc1S(=O)(=O)NCCCn1ccnc1 (centres unmarked) [Example 346] | UniProtKB Q8N474 | 2.4 |
| Cc1ccc(S(=O)(=O)c2cc(F)cc(F)c2)cc1S(=O)(=O)NCCc1ccccn1 [Example 417] | UniProtKB Q8N474 | 1.8 |

(P) CCOc1cc(CCNS(=O)(=O)c2cc(S(=O)(=O)c3ccccc3)ccc2OC)ccc1OC [Example 157]
(Q) CC(C)c1ccc(S(=O)(=O)c2ccc(F)cc2)cc1S(=O)(=O)NCC1CCOCC1 [Example 445]
Hello, I am sorting some records. Could you say if P or Q has the smaller fold induction at 15 µM value? Indicate your choice by writing its label.
P

(A) Cc1ccc(S(=O)(=O)c2ccccc2)cc1S(=O)(=O)NCCC(N)=O [Example 203]
(B) COc1ccc(S(=O)(=O)c2ccccc2)cc1S(=O)(=O)NC[C@H](C)c1ccccc1 [Example 271]
Between A and B , whose measured fold induction at 15 µM reads higher? Indicate your choice by writing its label.
A
(A: 2.5, B: 1.7)

(A) Cc1ccc(S(=O)(=O)c2ccccc2)cc1S(=O)(=O)NC1CCN(C(=O)c2ccc(C#N)cc2)CC1 [Example 476]
(B) Cc1ccc(S(=O)(=O)c2ccccc2)cc1S(=O)(=O)NCCN(C)C [Example 214]
Between A and B , whose measured fold induction at 15 µM reads higher? Indicate your choice by writing its label.
B

###

Biological target: SFRP-1 (Homo sapiens, UniProt Q8N474)
Assay: Cell-based assay for in vitro measurement of SFRP-1/SARP2 antagonist activity (U2OS cells co-transfected with 16x TCF-tk-Luciferase reporter, Wnt and hSFRP-1)
Details: U2OS, read-out: Fold Induction without SFRP-1, Conc 15 μM; single dose; luciferase reporter; cells without SFRP-1 (specificity control)
ENDPOINT LABEL: fold induction at 15 µM

| COMPOUND | ENDPOINT LABEL | MEASUREMENT |
| --- | --- | --- |
| Cc1c(S(=O)(=O)NCCc2ccccn2)cccc1S(=O)(=O)c1ccccc1 | fold induction at 15 µM | 1.1 |
| CC(C)c1cc(C(C)C)c(S(=O)(=O)c2ccccc2)cc1S(=O)(=O)NC1CCOCC1 | fold induction at 15 µM | 1.1 |
| CCc1nccn1CCNS(=O)(=O)c1cc(S(=O)(=O)c2ccc(F)cc2)ccc1C(C)C | fold induction at 15 µM | 1.1 |
| CC(C)c1ccc(S(=O)(=O)c2ccc(N(C)C)cc2)cc1S(=O)(=O)NCCc1ccccn1 | fold induction at 15 µM | 0.9 |
| CCOC(=O)C1CCCN(S(=O)(=O)c2cc(S(=O)(=O)c3ccccc3)ccc2Cl)C1 (stereo not drawn) | fold induction at 15 µM | 1.1 |
| CC(C)c1ccc(S(=O)(=O)c2cn(C)cn2)cc1S(=O)(=O)NCCc1ccccn1 | fold induction at 15 µM | 1.2 |

###

Target: SFRP-1 (Homo sapiens)
Sequence (Q8N474 32-314): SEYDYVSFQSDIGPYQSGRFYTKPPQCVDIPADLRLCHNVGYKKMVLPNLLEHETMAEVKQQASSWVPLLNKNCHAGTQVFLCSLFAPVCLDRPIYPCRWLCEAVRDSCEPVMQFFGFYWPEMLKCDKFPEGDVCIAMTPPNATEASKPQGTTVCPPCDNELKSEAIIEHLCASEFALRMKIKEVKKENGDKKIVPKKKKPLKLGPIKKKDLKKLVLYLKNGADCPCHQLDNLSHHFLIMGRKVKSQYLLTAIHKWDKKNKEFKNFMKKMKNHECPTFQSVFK
Assay: Cell-based assay for in vitro measurement of SFRP-1/SARP2 antagonist activity (U2OS cells co-transfected with 16x TCF-tk-Luciferase reporter, Wnt and hSFRP-1)
Conditions: U2OS, read-out: Fold Induction without SFRP-1, Conc 15 μM; without SFRP-1, single dose
ENDPOINT LABEL: fold induction at 15 µM

These solved cases illustrate the format of a correct answer.
| MOLECULE | TESTED SYSTEM | fold induction at 15 µM |
| --- | --- | --- |
| CCc1ccc(S(=O)(=O)c2ccccc2)cc1S(=O)(=O)NCCCc1ccccc1 | SFRP-1 (Homo sapiens) | 1.2 |
| Cc1ccc(S(=O)(=O)c2ccc(C(C)(O)Cc3ccccc3)cc2)cc1S(=O)(=O)NCCc1ccccn1 (centres unmarked) | SFRP-1 (Homo sapiens) | 1 |
| Cc1ccc(S(=O)(=O)c2cc3c(c(S(=O)(=O)NCCc4ccccc4F)c2)CCCC3)cc1 | SFRP-1 (Homo sapiens) | 1.1 |
| COc1ccc(CCN(C)S(=O)(=O)c2cc(S(=O)(=O)c3ccccc3)ccc2C)cc1OC | SFRP-1 (Homo sapiens) | 1 |
| CCCNS(=O)(=O)c1cc(S(=O)(=O)c2ccccc2)ccc1C | SFRP-1 (Homo sapiens) | 1 |
| Cc1ccc(S(=O)(=O)c2ccccc2)cc1S(=O)(=O)NC1CCOCC1 | SFRP-1 (Homo sapiens) | 1.3 |
| CCc1ccc(S(=O)(=O)c2ccccc2)cc1S(=O)(=O)NCCc1ccccc1 | SFRP-1 (Homo sapiens) | 1 |
| COc1ccc(OC)c(S(=O)(=O)c2ccc(C)c(S(=O)(=O)NCCc3ccccn3)c2)c1 | SFRP-1 (Homo sapiens) | 1.2 |
| COc1cccc(CCNS(=O)(=O)c2cc(S(=O)(=O)c3ccccc3)ccc2OC)c1 | SFRP-1 (Homo sapiens) | 1.1 |
| Cc1ccc(S(=O)(=O)c2ccccc2)cc1S(=O)(=O)NCCCN1CCCC1=O | SFRP-1 (Homo sapiens) | 0.9 |

(I) Cc1cc(C)c(S(=O)(=O)c2ccc(F)cc2)cc1S(=O)(=O)NCCc1ccccn1
(II) CCOc1ccc(CCNS(=O)(=O)c2cccc(S(=O)(=O)c3ccccc3)c2)cc1
Hello, I am sorting some records. Could you say if I or II has the smaller fold induction at 15 µM value? Indicate your choice by writing its label.
II
(II: 0.7, I: 1.1)

###

Molecular target: SFRP-1 (Homo sapiens, UniProt Q8N474)
Assay: Cell-based assay for in vitro measurement of SFRP-1/SARP2 antagonist activity (U2OS cells co-transfected with 16x TCF-tk-Luciferase reporter, Wnt and hSFRP-1);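 note: U2OS cells co-transfected with a TCF-tk luciferase reporter, a Wnt vector, hSFRP-1 or empty vector and CMV-βgal, luciferase luminescence read in cell lysates alongside βgal activity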
Conditions: U2OS, read-out: Fold Induction with SFRP-1, Conc 30 μM; with SFRP-1; fold induction over SFRP-1 control, single dose
ENDPOINT LABEL: fold induction at 30 µM

| COMPOUND | fold induction at 30 µM |
| --- | --- |
| COc1ccc(Br)cc1CCNS(=O)(=O)c1cc(S(=O)(=O)c2ccc(F)cc2)ccc1C [Example 30] | 1.7 |
| CN1CCCC1CCNS(=O)(=O)c1cccc(S(=O)(=O)c2ccccc2)c1 (stereo not drawn) [Example 186] | 1.3 |
| O=S(=O)(NCCN1CCCCC1)c1cccc(S(=O)(=O)c2ccccc2)c1 [Example 188] | 1.4 |
